Classification scheme (melting point): range 1 = under 80 °C, range 2 = from 80 °C up to 200 °C, range 3 = 200 °C and over

Known results for compounds:
Cc1nc(C)c(C=O)s1: range 1
N#C/C(=N\Nc1ccc([N+](=O)[O-])cc1)c1nc2ccccc2c(=O)[nH]1: range 3
COc1c(C(C)(C)C)cc([N+](=O)[O-])c(C)c1[N+](=O)[O-]: range 2
COC(=O)c1cc(C)n(CO)n1: range 2
Clc1ccc(P(c2ccc(Cl)cc2)c2ccc(Cl)cc2)cc1: range 2
COc1ccc2c(OC)c3ccoc3nc2c1OC: range 2
Oc1c(Cl)c(Cl)c(O)c(Cl)c1Cl: range 3
C(=C(/c1ccccc1)c1nc2ccccc2s1)/c1ccccc1: range 2
Cc1nc(C#N)cs1: range 1
CN(CC(=O)N1CCOCC1)Cc1c(Cl)cccc1NC(=O)c1ccccc1: range 2

Each compound maps to one class by melting point. Which class for O=[N+]([O-])c1c(Br)sc(Br)c1[N+](=O)[O-] ? range 2

Each compound maps to one class by melting point. Which class for CC(C)(CC(=O)O)c1ccccc1 ? range 1

* * *

ASSAY_READOUT: melting point (°C)
Could you give me the number in °C? Just the number is fine.

CC(=O)Nc1ccc(/C(=C\c2ccccc2NC(C)=O)C(=O)O)cc1: 240

Indicate its recorded melting point; the compound in question is OCc1cccc(C(F)(F)F)c1Cl 76

Indicate its recorded melting point; the compound in question is Nc1ccc2cc(S(=O)(=O)O)cc(S(=O)(=O)O)c2c1 300

Indicate its recorded melting point; the compound in question is Cc1ccc2cccc(C)c2c1 -13.9

Indicate its recorded melting point; the compound in question is Cc1cc(O)ncc1[N+](=O)[O-] 189

Indicate its recorded melting point; the compound in question is Nc1nn2c(C(F)(F)F)cc(=O)[nH]c2c1/N=N/c1ccccc1 283

Indicate its recorded melting point; the compound in question is COc1cc(/C=C/C(=O)CC(=O)/C=C/c2ccc(O)c(OC)c2)ccc1O 183

Indicate its recorded melting point; the compound in question is NNC(=O)c1ccc(Cl)cc1Cl 169

* * *

Recorded melting point for the following compounds
Could you give me the number in °C? Just the number is fine.

CC12CCC(c3c(Br)cc(=O)oc31)C2(C)C (stereo unspecified): 105
CC1CC(=O)c2cc(F)ccc2O1 (stereo unspecified): 71
NCC(=O)O: 182
CC1(C)CC(N)CC(C)(C)N1: 17
COc1ncnc(NS(=O)(=O)c2ccc(N)cc2)c1OC: 192

Indicate its recorded melting point; the compound in question is O=C(c1ccc(-c2ccccc2)cc1)c1ccc(-c2ccccc2)cc1 238

Indicate its recorded melting point; the compound in question is C=CSC=C 20

Indicate its recorded melting point; the compound in question is CCN(C#N)CC -80.6

Indicate its recorded melting point; the compound in question is CC(=O)Oc1cccc2cccnc12 55

Indicate its recorded melting point; the compound in question is COc1ccc(O)c2ccccc12 129

Indicate its recorded melting point; the compound in question is COc1cc2c(cc1OCc1ccccc1)C(C)NCC2 (stereo unspecified) 91

Indicate its recorded melting point; the compound in question is CC(C)(C#N)N=NC(C)(C)C#N 102

Indicate its recorded melting point; the compound in question is Clc1cc(Cl)c2oc3cc(Cl)c(Cl)cc3c2c1 202

Indicate its recorded melting point; the compound in question is CCCCCC(N)=O 101

Indicate its recorded melting point; the compound in question is CC(=O)C(C#N)(Cc1ccc([N+](=O)[O-])cc1)c1ccccc1 (stereo unspecified) 82

Indicate its recorded melting point; the compound in question is CCOc1ccccc1F -16.7

Indicate its recorded melting point; the compound in question is O=C(c1ccccc1)c1noc(-c2ccc3ccccc3c2)c1S(=O)(=O)c1ccccc1 178

Indicate its recorded melting point; the compound in question is O=S(=O)(Cl)c1ccc(Br)c(Br)c1 34

Indicate its recorded melting point; the compound in question is O=C1c2ccccc2-c2c(O)cccc21 250

* * *

ASSAY_READOUT: melting point

Indicate its recorded melting point; the molecule in question is Oc1nccnc1O 300 °C

Indicate its recorded melting point; the molecule in question is C/C(C#Cc1ccccc1)=C/C(C)=N/Nc1ccc([N+](=O)[O-])cc1[N+](=O)[O-] 210 to 212 °C

Indicate its recorded melting point; the molecule in question is O=c1cc(-c2ccccc2)oc2cc(O)ccc12 246 °C

Indicate its recorded melting point; the molecule in question is O=C(C=Cc1ccc(Br)o1)c1ccco1 76 to 78 °C

Indicate its recorded melting point; the molecule in question is C1=CCC=C1 -85 °C

Indicate its recorded melting point; the molecule in question is CCOc1ccc2c(C)cc(=O)oc2c1 115 °C

Indicate its recorded melting point; the molecule in question is Nc1c(Cl)cc(F)cc1Cl 56 °C

* * *

Recorded melting point for the following compounds
Could you give me the number in °C? Just the number is fine.

O=C(O)CCc1ccc(Br)cc1: 135
COc1cc(CCl)ccc1OCc1ccccc1: 73
COC(=O)CC#N: -13
N[C@@H]1C=C[C@H](C(=O)O)C1: 180
CC(CCC(=O)O)C1CCC2C3C(=O)CC4CCCCC4(C)C3CCC12C (stereo unspecified): 145
Clc1cncc(Br)c1: 80

Indicate its recorded melting point; the compound in question is COC(=O)COc1ccc(Cl)cc1Cl 119

Indicate its recorded melting point; the compound in question is FC(F)(F)C(F)(F)C(F)(F)C(F)(F)C(F)(F)C(F)(F)I -45

Indicate its recorded melting point; the compound in question is O=C1NCCN1CCO 49

Indicate its recorded melting point; the compound in question is CCC(F)(F)C(=O)O 8

Indicate its recorded melting point; the compound in question is O=C1NC(=NN=Cc2ccccc2)SC1=Cc1ccccc1 295

Indicate its recorded melting point; the compound in question is NC(=O)Cc1nc(-c2ccc(F)cc2)cs1 182

Indicate its recorded melting point; the compound in question is COc1ccc2nc(C)ccc2c1 64

* * *

ASSAY_READOUT: melting point (°C)
Could you give me the number in °C? Just the number is fine.

Guide cases for melting point, answers given:
OC(CNc1ccccn1)c1ccccc1 (stereo unspecified): 83.5
O=[N+]([O-])c1ccc(/C(Cl)=C\c2cccc(/C=C(/Cl)c3ccc([N+](=O)[O-])cc3[N+](=O)[O-])c2)c([N+](=O)[O-])c1: 215
CCCCCCCCCC=CC(=O)O: 17.1

Indicate its recorded melting point; the compound in question is Cn1cc(C=O)c2ccccc21 69

Indicate its recorded melting point; the compound in question is O=C(OCC(=O)N1CCC(O)CC1)c1ccccc1 122

Indicate its recorded melting point; the compound in question is Cc1cc(O)c(Cl)cc1Cl 73

Indicate its recorded melting point; the compound in question is CCCCCCCC(=O)CCCCCCC 43

Indicate its recorded melting point; the compound in question is CCOC(=O)CN(CCCN(CC(=O)OCC)S(=O)(=O)c1ccc(C)cc1)S(=O)(=O)c1ccc(C)cc1 130

* * *

Recorded melting point for the following compounds
Could you give me the number in °C? Just the number is fine.

COC(=O)c1ccc(=O)oc1: 70
c1ccc2c(c1)nnc1ccccc12: 158

# evaluate next
Indicate its recorded melting point; the compound in question is O=[N+]([O-])c1c(O)ccc2ccccc12 104

* * *

Recorded melting point for the following compounds
Could you give me the number in °C? Just the number is fine.

Guide cases for melting point, answers given:
CC(C)=NN=C(C)C: -12.5
COc1cc(N)c2ncccc2c1: 52
Fc1ccc2c3c([nH]c2c1)CNCC3: 224

Indicate its recorded melting point; the compound in question is O=C(O)c1ccc2[nH]cnc2c1 300

* * *

Recorded melting point for the following compounds
Could you give me the number in °C? Just the number is fine.

Guide cases for melting point, answers given:
CC(C)(C)OC(=O)N[C@H](Cc1ccc(C#N)cc1)C(=O)O: 153
Nc1ncnc2c1ccn2C1OC(CO)C(O)C1O (configuration not stated): 247
Cc1ccc(C#N)c([N+](=O)[O-])c1: 97
NC(=S)NC1CCCCC1: 162

# evaluate next
Indicate its recorded melting point; the compound in question is O=Cc1ccc2oc3ccccc3c2c1 74

* * *

Recorded melting point for the following molecules
Could you give me the number in °C? Just the number is fine.

COc1ccc2cc(-c3ccn[nH]3)ccc2c1: 201

Indicate its recorded melting point; the molecule in question is O=C(Nc1cccc(Cl)c1)OCC#CCCl 75

* * *

Recorded melting point for the following molecules
Could you give me the number in °C? Just the number is fine.

C#CCC(C)(C)C: -75
C=CC=C(C=C1C(=O)NN=C1c1c(O)c2ccccc2n(C)c1=O)C(Cl)=CC: 260
BrCc1nc2ccccc2s1: 47

Indicate its recorded melting point; the molecule in question is O=C1c2ccccc2C(=O)N1Cc1ccccc1 116

Indicate its recorded melting point; the molecule in question is CCC1OC(=O)C(C)C(OC2OC(C)CC(N(C)C)C2O)C(C)CC(C)C(=O)C=CC1(C)O (configuration not stated) 196

Indicate its recorded melting point; the molecule in question is NC=S 26.5

Indicate its recorded melting point; the molecule in question is CC(=O)Oc1cc(OC(C)=O)cc(C(=O)O)c1 159
